The reported measurements were obtained from patent US20200055939A1.

- tested on: T1, huMICA*004 alpha 3-his (human)
- T1 construct: whole construct entry: GS, alpha 3 domain, GNS, His8; also called MICA004.His; MICA*004 alpha3 construct
- T1 chain: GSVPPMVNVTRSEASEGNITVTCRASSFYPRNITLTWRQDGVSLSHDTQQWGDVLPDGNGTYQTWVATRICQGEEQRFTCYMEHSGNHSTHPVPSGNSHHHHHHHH
- assay overview: SPR, Biacore 8K, antibody on Protein A chip
Items are presented alongside their recorded Kd.
endpoint: Kd (nM)

[[record]]
binder = "1D5v18 (antibody, IgG1, V domains shown, humanized variant of 1D5) VH: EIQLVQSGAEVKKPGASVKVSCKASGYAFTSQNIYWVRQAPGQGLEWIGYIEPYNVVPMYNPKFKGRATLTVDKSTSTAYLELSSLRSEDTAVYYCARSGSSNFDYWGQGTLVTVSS VL: DIQLTQSPSSLSASVGDRVTITCSASSSISSHYLHWYQQKPGKSPKLLIYRTSNLASGVPSRFSGSGSGTDFTLTISSLQPEDFATYYCQQGSSLPLTFGQGTKVEIK"
endpoint = "Kd"
value_units = "nM"
number = 0.79

[[record]]
binder = "1D5v24 (antibody, IgG1, V domains shown, humanized variant of 1D5) VH: EVQLVQSGAEVKKPGASVKVSCKASGYAFTSQNIYWVRQAPGQGLEWIGYIEPYNVVPMYNPKFKGRVTITVDKSTSTAYLELSSLRSEDTAVYYCARSGSSNFDYWGQGTLVTVSS VL: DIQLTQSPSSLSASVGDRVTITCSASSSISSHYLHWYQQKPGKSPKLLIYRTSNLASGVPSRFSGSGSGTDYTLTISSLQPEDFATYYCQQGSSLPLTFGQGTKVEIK"
endpoint = "Kd"
value_units = "nM"
number = 0.9

[[record]]
binder = "1D5v9 (antibody, IgG1, V domains shown, humanized variant of 1D5) VH: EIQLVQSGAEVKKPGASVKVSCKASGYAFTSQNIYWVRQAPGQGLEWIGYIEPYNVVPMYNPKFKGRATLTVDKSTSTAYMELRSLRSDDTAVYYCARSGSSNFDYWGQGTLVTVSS VL: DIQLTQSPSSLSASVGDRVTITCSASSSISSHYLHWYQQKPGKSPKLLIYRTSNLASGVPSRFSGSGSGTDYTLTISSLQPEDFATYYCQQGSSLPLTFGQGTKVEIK"
endpoint = "Kd"
value_units = "nM"
number = 0.95

